Every entry's value here was drawn from patent US10227331B2.

target: VIM-1 (Pseudomonas aeruginosa (strain ATCC 15692 / DSM 22644 / CIP 104116 / JCM 14847 / LMG 12228 / 1C / PRS 101 / PAO1)); experiment: biochemical; conditions: CCF2-FA substrate, 2 hours at 25° C
REPORTED PROPERTY: pIC50
Recall that pIC50 is obtained by taking minus log10 of the concentration measured in molar.

Before answering, review these 6 worked examples.
Query: State its pIC50: NCCS(=O)(=O)c1ccc(-c2ccc3c(c2)C(=O)NC3)c(-c2nnn[nH]2)c1S(N)(=O)=O.O=C(O)C(F)(F)F [Example 140, 2,2,2-trifluoroacetate]
Result: 9.65

Query: State its pIC50: "NS(=O)(=O)c1c(SC2CNC2)ccc(-c2ccc(C3CCNCC3)cc2)c1-c1nn[nH]n1"
Result: 7.27

Query: State its pIC50: "NC[C@@H](CO)S(=O)(=O)c1ccc(-c2cccc3nc(N)[nH]c23)c(-c2nn[nH]n2)c1S(N)(=O)=O"
Result: 9.10

Query: State its pIC50: "NS(=O)(=O)c1c(SC2CCNCC2)ccc(-c2ccc(C3CCNCC3)cc2)c1-c1nnn[nH]1"
Result: 7.31

Query: State its pIC50: "Nc1nc2c(-c3ccc(S(=O)(=O)C4CCNCC4)c(S(N)(=O)=O)c3-c3nn[nH]n3)cccc2s1"
Result: 9.60

Query: State its pIC50: "Nc1nc2c(-c3ccc(S(=O)(=O)[C@H]4CCNC4)c(S(N)(=O)=O)c3-c3nn[nH]n3)cccc2s1"
Result: 9.58

Next:
Query: State its pIC50: "CS(=O)(=O)c1ccc(-c2cccc3cn[nH]c23)c(-c2nn[nH]n2)c1S(N)(=O)=O"
Result: 9.53

Query: State its pIC50: "NCCS(=O)(=O)c1ccc(-c2ccc3[nH]c(N)nc3c2)c(-c2nn[nH]n2)c1S(N)(=O)=O"
Result: 9.31

----------
target: VIM-1 (Pseudomonas aeruginosa (strain ATCC 15692 / DSM 22644 / CIP 104116 / JCM 14847 / LMG 12228 / 1C / PRS 101 / PAO1), UniProt A0A0F7KYQ8); assay: biochemical; conditions: CCF2-FA substrate, 2 hours at 25° C
pIC50: recorded values
Recall that pIC50 is obtained by taking minus log10 of the concentration measured in molar.

Before answering, review these 2 worked examples.
Query: State its pIC50: "NC[C@@H](O)CS(=O)(=O)c1ccc(-c2cccc3[nH]cnc23)c(-c2nn[nH]n2)c1S(N)(=O)=O"
Result: 9.60

Query: State its pIC50: NS(=O)(=O)c1c([S+]([O-])C2CNC2)ccc(-c2cnc3ccccn23)c1-c1nn[nH]n1 (stereo not shown)
Result: 8.16

Next:
Query: State its pIC50: "NCCS(=O)(=O)c1ccc(-c2cccc3cnccc23)c(-c2nnn[nH]2)c1S(N)(=O)=O.O=C(O)C(F)(F)F"
Result: 9.57

Query: State its pIC50: Nc1ccc(-c2ccc([S+]([O-])C3CCNCC3)c(S(N)(=O)=O)c2-c2nn[nH]n2)cn1 (stereo not shown)
Result: 8.19

Query: State its pIC50: "NCCS(=O)(=O)c1ccc(-c2cccc3sc(CN)nc23)c(-c2nn[nH]n2)c1S(N)(=O)=O"
Result: 9.88

Query: State its pIC50: "Nc1n[nH]c2cccc(-c3ccc(S(=O)(=O)C4CNC4)c(S(N)(=O)=O)c3-c3nnn[nH]3)c12"
Result: 9.23

Query: State its pIC50: NCCS(=O)(=O)c1ccc(-c2ccc3[nH]ncc3c2)c(-c2nnn[nH]2)c1S(N)(=O)=O.O=C(O)C(F)(F)F [Example 167, 2,2,2-trifluoroacetate]
Result: 9.47
